assay.method.text: qHTS for Inhibitors of Inflammasome Signaling: IL-1-beta AlphaLISA Primary Screen
run.conditions: THP-1 LPS/ATP IL-1B secretion, 16 h; at 57.5 µM, active compounds read low
About 17,000 (4.7%) of roughly 360,000 compounds were called active. Roughly 5% stayed inconclusive and do not appear here. The sample holds actives, similar compounds and a random draw of the others, so the mix is not that of the screen.
Labelling: activity change reported below -10% becomes Condition met; at or above becomes Condition not met.

Take the compound COc1cccc(CNC(=O)c2n[nH]c3ccccc23)c1 and say whether its activity change is less than -10%.
Condition not met

Take the compound CCc1cc(C(=O)N(CC)CC(=O)Nc2c(F)cccc2F)sc1C and say whether its activity change is less than -10%.
Condition not met

Take the compound O=C(CO/N=C/c1ccc(OC(F)F)cc1)NCc1ccc(F)cc1 and say whether its activity change is less than -10%.
Condition met

Take the compound O=C1c2ccccc2C(=O)C1C(=O)C1CC1 and say whether its activity change is less than -10%.
Condition not met

Take the compound COc1cccc(OC)c1C(=O)N1CCN(Cc2ccccc2F)CC1 and say whether its activity change is less than -10%.
Condition met

Take the compound COc1cc(OC)c(C(=O)NC2CC(C)(C)NC(C)(C)C2)cc1OC and say whether its activity change is less than -10%.
Condition not met

Take the compound NS(=O)(=O)c1ccc(CCNc2nc(C(F)(F)F)nc3ccccc23)cc1 and say whether its activity change is less than -10%.
Condition met

Take the compound CN(CC(=O)Nc1ccccc1[N+](=O)[O-])Cc1ccc(Br)cc1 and say whether its activity change is less than -10%.
Condition not met

Take the compound Cc1ccnc(NC(=O)Cn2ccc([N+](=O)[O-])n2)c1 and say whether its activity change is less than -10%.
Condition not met

Take the compound COc1ccc(C(CNC(=O)COc2ccc([N+](=O)[O-])cc2)N2CCCCC2)cc1 (configuration not stated) and say whether its activity change is less than -10%.
Condition met

Take the compound CC(=O)Nc1cncc(-c2ccccc2CO)n1 and say whether its activity change is less than -10%.
Condition not met

Take the compound O=C(NCC(=O)N1CCN(c2ccccc2F)CC1)c1cccs1 and say whether its activity change is less than -10%.
Condition not met

Take the compound O[C@@H]1C[C@H](c2ccccc2)N(Cc2cccs2)C[C@H]1n1cc(C2CC2)nn1 and say whether its activity change is less than -10%.
Condition met

Take the compound CC(=O)Nc1cccc(-c2ccnc3c2CC(C)(C(=O)NCc2ccco2)O3)c1 (configuration not stated) and say whether its activity change is less than -10%.
Condition not met

Take the compound COc1ccc(N2CC(C(=O)NCCN3C(=O)S/C(=C\c4cccnc4)C3=O)CC2=O)c(OC)c1 (configuration not stated) and say whether its activity change is less than -10%.
Condition met

Take the compound CN(C(=O)c1cccc(NC(=O)Cc2ccc(NC(=O)C3CCN(C(=O)C4CCCCC4)CC3)cc2)c1)C1CCC1 and say whether its activity change is less than -10%.
Condition not met

Take the compound CCc1ccc(C(CNc2nc(C(F)(F)F)nc3ccccc23)N(C)C)cc1 (configuration not stated) and say whether its activity change is less than -10%.
Condition met

Take the compound CC1(C(=O)NS(=O)(=O)c2ccc3ccccc3c2)CCN1C(=O)C1(c2ccc(Cl)cc2)CCC1 (configuration not stated) and say whether its activity change is less than -10%.
Condition not met

Take the compound CCOC(=O)N1CCC(N2Cc3cccc(C(=O)Nc4ccc(S(=O)(=O)N(CC)CC)cc4)c3C2=O)CC1 and say whether its activity change is less than -10%.
Condition not met

Take the compound COC(C)(C)[C@]12CC(O)(C(C)C)ON1[C@H]1CCCCC1N2O (some centres not stated) and say whether its activity change is less than -10%.
Condition not met

Take the compound COc1ccc(-c2cc(C(F)(F)F)nc(SCCC(=O)NCc3ccco3)n2)cc1 and say whether its activity change is less than -10%.
Condition met

Take the compound O=C(Nn1c(SCc2ccc([N+](=O)[O-])cc2)nc2ccccc2c1=O)c1ccc(F)cc1 and say whether its activity change is less than -10%.
Condition not met

Take the compound CN(CC(=O)NCCc1ccc(F)cc1)CC(=O)Nc1ccc(F)c(F)c1F and say whether its activity change is less than -10%.
Condition met

Take the compound OC[C@@H]1CN(Cc2cccs2)C[C@H](n2cnc3c(Nc4ccccc4)ncnc32)O1 and say whether its activity change is less than -10%.
Condition not met

Take the compound CCCCN(Cc1ccccc1)C(=O)C1CCN(Cc2sccc2C)CC1 and say whether its activity change is less than -10%.
Condition met

Take the compound OCCC#Cc1ccc(N2C(c3ccsc3)=Cc3ccc(F)cc3C2c2c[nH]c3ccccc23)cc1 (configuration not stated) and say whether its activity change is less than -10%.
Condition met

Take the compound CCCCCCNC(=O)O[C@]12C[C@@H](C(=O)OC)[C@@H](C(=O)OC)C[C@@]1(O)CN(S(=O)(=O)c1ccc(C)cc1)C2 and say whether its activity change is less than -10%.
Condition not met

Take the compound Cc1ccnc(NC(=O)c2ccoc2C)c1 and say whether its activity change is less than -10%.
Condition not met

Take the compound CCOC(=O)CCc1c(C)c(C#N)c2[nH]c3ccccc3n2c1=O and say whether its activity change is less than -10%.
Condition met

Take the compound CCCCc1ccc(NC(=O)NCc2cccnc2)cc1 and say whether its activity change is less than -10%.
Condition not met

Take the compound CN(NC(=O)c1ccccc1F)c1nc(C(F)(F)F)nc2ccccc12 and say whether its activity change is less than -10%.
Condition not met

Take the compound Nc1ncnc2c1ncn2[C@@H]1O[C@H](C(=O)N2CCCN(Cc3ccccc3F)CC2)[C@@H](O)[C@H]1O and say whether its activity change is less than -10%.
Condition not met

Take the compound CCCCn1c(CCCNC(=O)CC)nc2ccccc21 and say whether its activity change is less than -10%.
Condition not met

Take the compound COC(=O)[C@H]1C[C@H](OC(=O)NCc2ccccc2)[C@@]2(O)CN(S(=O)(=O)c3ccc(C)cc3)CC2[C@H]1C(=O)OC (some centres not stated) and say whether its activity change is less than -10%.
Condition not met

Take the compound Cc1ccccc1C(CC(=O)c1cccs1)C(C#N)C#N (configuration not stated) and say whether its activity change is less than -10%.
Condition met

Take the compound CCN(CC)c1ccc(C(=O)Nn2c(C)nc3ccccc3c2=O)cc1 and say whether its activity change is less than -10%.
Condition not met

Take the compound COc1cc(-c2nnc(NC(=O)CS(=O)(=O)c3ccc(Cl)cc3)o2)cc(OC)c1OC and say whether its activity change is less than -10%.
Condition met

Take the compound O=C(Nc1ccncc1)c1ccc([N+](=O)[O-])cc1Cl and say whether its activity change is less than -10%.
Condition met

Take the compound CNc1nc(=O)n(C2CCCO2)cc1C (configuration not stated) and say whether its activity change is less than -10%.
Condition not met

Take the compound Cc1ccc(/C=C2\CCn3c2nc2cc(C(=O)O)ccc2c3=O)c(C)c1 and say whether its activity change is less than -10%.
Condition not met

Take the compound Cc1ccnc(NC(=O)c2ccc(Cl)c([N+](=O)[O-])c2)c1 and say whether its activity change is less than -10%.
Condition met
